# target.system: IKZF2 (Homo sapiens (Human), UniProt Q96SW2+Q9UKS7)
# Sequence (Q9UKS7 whole entry): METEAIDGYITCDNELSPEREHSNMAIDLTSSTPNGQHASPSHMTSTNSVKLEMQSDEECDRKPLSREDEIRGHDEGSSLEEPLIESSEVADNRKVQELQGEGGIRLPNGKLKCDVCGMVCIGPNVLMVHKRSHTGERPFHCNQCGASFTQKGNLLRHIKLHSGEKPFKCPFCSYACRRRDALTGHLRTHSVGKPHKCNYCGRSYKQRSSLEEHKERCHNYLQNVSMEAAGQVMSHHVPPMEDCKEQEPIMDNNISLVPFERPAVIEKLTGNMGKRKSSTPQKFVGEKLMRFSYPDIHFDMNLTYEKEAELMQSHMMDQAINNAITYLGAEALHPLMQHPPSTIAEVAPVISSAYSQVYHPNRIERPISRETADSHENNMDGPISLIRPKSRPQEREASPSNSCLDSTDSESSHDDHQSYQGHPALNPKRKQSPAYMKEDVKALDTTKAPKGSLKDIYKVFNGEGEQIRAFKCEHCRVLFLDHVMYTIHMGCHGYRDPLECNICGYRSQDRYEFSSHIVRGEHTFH
# Sequence (Q96SW2 whole entry): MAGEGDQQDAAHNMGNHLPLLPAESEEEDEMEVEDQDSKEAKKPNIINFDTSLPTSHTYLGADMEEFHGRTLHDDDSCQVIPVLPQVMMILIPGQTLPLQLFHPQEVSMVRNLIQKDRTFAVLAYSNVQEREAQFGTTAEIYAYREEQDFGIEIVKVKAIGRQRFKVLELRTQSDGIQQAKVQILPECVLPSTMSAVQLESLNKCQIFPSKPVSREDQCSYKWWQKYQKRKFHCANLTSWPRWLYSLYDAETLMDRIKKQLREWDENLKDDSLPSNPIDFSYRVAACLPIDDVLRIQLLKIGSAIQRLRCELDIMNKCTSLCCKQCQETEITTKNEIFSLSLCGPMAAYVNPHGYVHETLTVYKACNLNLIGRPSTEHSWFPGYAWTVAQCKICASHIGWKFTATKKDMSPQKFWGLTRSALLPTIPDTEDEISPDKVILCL
# Sequence (Q16531 2-1140 partner): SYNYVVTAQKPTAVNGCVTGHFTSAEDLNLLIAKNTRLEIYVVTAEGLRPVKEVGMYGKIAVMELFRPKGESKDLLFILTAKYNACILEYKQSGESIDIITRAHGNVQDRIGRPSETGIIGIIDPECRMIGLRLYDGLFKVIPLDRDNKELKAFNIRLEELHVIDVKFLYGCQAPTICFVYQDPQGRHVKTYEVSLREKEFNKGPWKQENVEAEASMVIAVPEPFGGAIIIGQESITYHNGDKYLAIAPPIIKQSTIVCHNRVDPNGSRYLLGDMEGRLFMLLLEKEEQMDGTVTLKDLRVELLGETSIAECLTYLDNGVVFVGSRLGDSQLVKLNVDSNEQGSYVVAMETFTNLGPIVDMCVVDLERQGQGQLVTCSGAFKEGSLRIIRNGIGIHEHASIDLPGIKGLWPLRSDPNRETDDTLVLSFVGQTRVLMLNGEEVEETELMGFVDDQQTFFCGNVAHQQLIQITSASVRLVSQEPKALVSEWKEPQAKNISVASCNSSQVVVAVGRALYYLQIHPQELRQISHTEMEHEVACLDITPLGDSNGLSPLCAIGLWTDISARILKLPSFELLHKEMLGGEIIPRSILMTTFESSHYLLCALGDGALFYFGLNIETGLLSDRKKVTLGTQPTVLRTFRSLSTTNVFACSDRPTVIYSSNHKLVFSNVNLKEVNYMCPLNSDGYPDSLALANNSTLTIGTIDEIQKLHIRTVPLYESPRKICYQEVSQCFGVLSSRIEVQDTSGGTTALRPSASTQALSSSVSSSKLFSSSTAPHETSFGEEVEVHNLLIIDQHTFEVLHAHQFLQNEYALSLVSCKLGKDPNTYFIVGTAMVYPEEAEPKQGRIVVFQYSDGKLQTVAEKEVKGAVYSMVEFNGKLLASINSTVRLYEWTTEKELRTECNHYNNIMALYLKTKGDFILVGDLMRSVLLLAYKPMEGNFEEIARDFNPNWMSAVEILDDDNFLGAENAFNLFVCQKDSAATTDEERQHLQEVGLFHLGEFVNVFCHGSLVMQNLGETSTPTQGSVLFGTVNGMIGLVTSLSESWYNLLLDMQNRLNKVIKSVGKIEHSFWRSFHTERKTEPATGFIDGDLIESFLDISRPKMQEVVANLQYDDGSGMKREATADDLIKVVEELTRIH
# protocol.text: In vitro IKZF2 HiBit Assay (HEK293T Flp-in-HiBiT cells)
# Type: cell-based
# assay.setup: HEK293T Flp-in-HiBiT cells, 6 hrs incubation; read-out: IKZF2 HiBit DC50
Could you please report measured DC50 for the items listed next?

// solved cases for DC50 follow
[[record]]
compound = "Cn1cnc2c(CN3CCCC3)cc(-c3ccc4c(c3)CN(C3CCC(=O)NC3=O)C4=O)nc21 (stereo not shown)"
target_system = "IKZF2 (Homo sapiens (Human), UniProt Q96SW2+Q9UKS7)"
readout_value = "0.001 to 0.01 µM"

[[record]]
compound = "O=C1CCC(N2Cc3cc(-c4cc(CN5CCCC5)c5nccc(OC6COC6)c5n4)ccc3C2=O)C(=O)N1 (stereo not shown)"
target_system = "IKZF2 (Homo sapiens (Human), UniProt Q96SW2+Q9UKS7)"
readout_value = "0.01 to 0.1 µM"

[[record]]
compound = "O=C1CCC(N2Cc3cc(-c4cc(CN5CCCC5)c5c(ccn5CCCO)n4)ccc3C2=O)C(=O)N1 (stereo not shown)"
target_system = "IKZF2 (Homo sapiens (Human), UniProt Q96SW2+Q9UKS7)"
readout_value = "0.01 to 0.1 µM"


Okay, here is my list. What is DC50 for each of these?
1. CN(C)C(=O)C1CCN(Cc2cc(-c3ccc4c(c3)CN(C3CCC(=O)NC3=O)C4=O)nc3c2ccn3C)CC1 (stereo not shown)
2. O=C1CCC(N2Cc3cc(-c4cc(CN5CCCC5)c5cc[nH]c5n4)ccc3C2=O)C(=O)N1 (stereo not shown)

Solution:
1. 0.001 to 0.01 µM
2. 0.001 to 0.01 µM

Okay, here is my list. What is DC50 for each of these?
1. Cn1ccc2c(Cn3cnc4ccccc43)cc(-c3ccc4c(c3)CN(C3CCC(=O)NC3=O)C4=O)nc21 (stereo not shown)
2. O=C1CCC(N2Cc3cc(-c4cc(CN5CCC(O)C5)c5cc[nH]c5n4)ccc3C2=O)C(=O)N1 (stereo not shown)

Solution:
1: 0.01 to 0.1 µM; 2: 0.01 to 0.1 µM
